Tested on: MS2 coat protein
Test: apparent KD of MS2 coat protein; designed switch direction (-1 OFF switch, 1 ON switch): -1; higher = weaker reporter binding
Conditions: input ligand: none
Listed here: items and their measured apparent KD of MS2 coat protein.

Here's what some known entries look like.
CCGGUUGGCGCAGGAUAUACAUGAGGAUCACCCAUGUUCAUGAGGAUCACCCAUGAGUUUUUGUUGUAGAAGGGUGGCCCGGCC [A second MS2 with the first and last base exchanged (less A)] (Eterna round: R96, puzzle: Exclusion NG 2) :: 0.0294 µM
CCUUGUCUGAAGGAUAUCCGCCUAAAAGGCAAGGGAGAAGGUUAGACAUGAGGAUCACCCAUGUGCCGGUGUAA [EX6 A.26] (Eterna round: R97, puzzle: Exclusion 6) :: 0.0251 µM
GCUUCGGCAGGAUAUACAAUGAAGUUGAGAAAUCGGCUUCGACAUGAGGAUCACCCAUGUAGAAGGGUUGAAGU [-26.3, -24 kcal, A 32% 3, 3 bis] (Eterna round: R97, puzzle: Exclusion 2) :: 0.0486 µM

# input sequence: GUGAAGUAAGGAUAUACAUGAGGAUCACCCAUGUGGAGGAAGGUGAUGGGAGUAGGUAGUAGAAGGUACGAGGA [JR_Exclu3_Sub064] (Eterna round: R96, puzzle: Exclusion 3) ; wanted: its apparent KD of MS2 coat protein
0.207 µM

Also need CAGUACUGAGGAUAUACAUGAGGAUCACCCAUGUGUCUUCAAUUAGGAAACUAGUUAUGUAGAAGGCAGUACUG [Omei Ex3 Mod of Eli 4.27 v9] (Eterna round: R97, puzzle: Exclusion 3) , thanks.
0.0622 µM

Data provenance is the supplement of paper PMC9170038.
